# NT50 per record follows
ASSAY_SYSTEM: T1, Marburg virus Musoke GP on rVSV pseudotype (VSV-MARV Musoke GP) (Marburg virus, Musoke strain, UniProt P35253 19-681)
T1 sequence: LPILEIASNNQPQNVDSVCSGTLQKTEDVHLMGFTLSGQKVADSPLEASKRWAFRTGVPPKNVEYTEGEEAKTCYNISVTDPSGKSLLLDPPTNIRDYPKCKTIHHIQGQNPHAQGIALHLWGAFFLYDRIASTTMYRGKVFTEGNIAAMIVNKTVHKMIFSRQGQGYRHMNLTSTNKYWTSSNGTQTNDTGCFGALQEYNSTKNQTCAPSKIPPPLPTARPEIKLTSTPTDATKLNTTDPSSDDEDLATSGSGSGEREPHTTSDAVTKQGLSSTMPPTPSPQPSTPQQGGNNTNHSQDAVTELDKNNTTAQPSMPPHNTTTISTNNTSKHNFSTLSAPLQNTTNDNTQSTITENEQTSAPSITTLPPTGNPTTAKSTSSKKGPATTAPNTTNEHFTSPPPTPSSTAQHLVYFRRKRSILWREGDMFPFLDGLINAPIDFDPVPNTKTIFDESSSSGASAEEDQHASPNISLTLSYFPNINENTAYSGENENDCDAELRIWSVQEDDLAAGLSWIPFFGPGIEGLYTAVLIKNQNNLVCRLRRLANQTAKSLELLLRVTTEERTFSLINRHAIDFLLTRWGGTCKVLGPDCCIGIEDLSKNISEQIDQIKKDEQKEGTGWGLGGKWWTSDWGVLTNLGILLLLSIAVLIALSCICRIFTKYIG
TEST: cell-based or functional assay

R25 (antibody, V domains shown) VH: EVQLVESGAGLVQPGGSLRLSCAASGFTFSNSWMTWVRQAPGKGLEWVGRIKRKADGETADYAASVKGRFTISRDDSKNTLYLQMNSLKTEDTAVYYCTTYNWNFNFDHWGQGVLVTVSS VL: DIQMTQSPSSLSASVGDRVTITCRASQDISPYLNWYQQKPGKAPKLLIYYGNRLESGVPSRFSGSGSGTDLTLTISSLQPEDFATYYCQQYYRLPLTFGGGTKVEIK : 0.01 µg/mL

Form: binder = R50 (antibody, V domains shown) VH: QVQLQESGPGLVKPSETLSLTCAVSGDSISSYWWNWIRQPPGKGLEWIGEIYGYSGSTNYNASLKSRVTISKDASKKQLSLKLSSVTAADTAVYYCARDPLNQDAFDFWGLGLRVTVSS VL: QSALTQPPSVSGSPGQSVTISCTGTSSDIGGYTYVSWYQQHPGKAPKLMIYDVSRRPSGVSDRFSGSKSGNTASLTISGLQAEDEADYYCSSYAGRNALLFGGGTRLTVL ; NT50 = 0.06 µg/mL

Kindly note the recorded NT50 for R83 (antibody, V domains shown) VH: QVQLQESGPGLVKPSETLSLTCAVSGASISDYWWNWIRQPPGKGLEWIGEIYGYSGSTYYNPSLKSRVTISKDASKKQLSLRLTSVTAADTAIYYCARDPLNQDAFDFWGLGLRVTVSS VL: QSALTQPPSVSGSPGQSVTISCTGTSSDIGGYTYISWYQQYPGKAPKLMIYDVSKRPSGVSDRFSGSKSGNTASLTVSGLQAEDEADYYCSSYGGRKTLLFGGGTRLTVL , which is 0.05 µg/mL
